Tested on: Zymoseptoria tritici
assay notes: Leaf blotch of wheat (SEPTTR), disease control on wheat seedlings
Format: in vivo
condition notes: 24 h, high volume application at 100 ppm, 1 Day Protectant, read-out: SEPTTR disease control, 1DP, HV activity

>  <molecule>
COc1ccnc(C(=O)N[C@@H](C)C(=O)O[C@@H](C)[C@@H](c2ccc(F)cc2F)C(C)C)c1O

>  <pest or weed control at 100 ppm>
< 80%

$$$$
>  <molecule>
CC[C@H](C)[C@H](NC(=O)c1nccc(OC)c1O)C(=O)O[C@@H](C)[C@H](c1ccc(F)cc1C)C(C)C

>  <pest or weed control at 100 ppm>
< 80%

$$$$
>  <molecule>
CCC(C)[C@H](c1ccc(F)cc1C)[C@H](C)OC(=O)[C@H](C)NC(=O)c1nccc(OC)c1O (some centres unmarked)

>  <pest or weed control at 100 ppm>
< 0%

$$$$
>  <molecule>
COc1ccnc(C(=O)N[C@@H](C)C(=O)O[C@@H](C)[C@@H](c2ccccc2)C2CCCC2)c1O

>  <pest or weed control at 100 ppm>
< 0%

$$$$
>  <molecule>
CCC(CC)[C@@H](c1ccccc1)C(C)OC(=O)[C@H](C)NC(=O)c1nccc(OC)c1O (some centres unmarked)

>  <pest or weed control at 100 ppm>
> 80%

$$$$
>  <molecule>
COc1ccnc(C(=O)N[C@@H](C)C(=O)O[C@@H](C)[C@H](c2ccc(F)cc2C)C2CCC2)c1O

>  <pest or weed control at 100 ppm>
> 80%

$$$$
>  <molecule>
COc1ccnc(C(=O)N[C@@H](C)C(=O)O[C@@H](C)[C@H](c2ccc(F)cc2C)C(C)C)c1O

>  <pest or weed control at 100 ppm>
> 80%

$$$$
>  <molecule>
COc1cc(F)ccc1[C@H](C1CCCC1)[C@H](C)OC(=O)[C@H](C)NC(=O)c1nccc(OC)c1O

>  <pest or weed control at 100 ppm>
< 80%

$$$$
>  <molecule>
COc1ccnc(C(=O)N[C@@H](C)C(=O)O[C@@H](C)[C@H](c2ccc(F)cc2F)C(C)C)c1O

>  <pest or weed control at 100 ppm>
> 80%

$$$$
>  <molecule>
COc1ccnc(C(=O)N[C@@H](C)C(=O)O[C@@H](C)[C@@H](c2ccc(C)cc2C)C2CCC2)c1O

>  <pest or weed control at 100 ppm>
< 80%

$$$$
>  <molecule>
CCC(C)[C@@H](c1ccc(F)cc1OC)[C@H](C)OC(=O)[C@H](C)NC(=O)c1nccc(OC)c1O (some centres unmarked)

>  <pest or weed control at 100 ppm>
< 80%

$$$$
>  <molecule>
COc1ccnc(C(=O)N[C@@H](C)C(=O)O[C@@H](C)[C@@H](c2ccc(F)cc2C)C(C)C)c1O

>  <pest or weed control at 100 ppm>
< 0%

$$$$
>  <molecule>
COc1cc(F)ccc1[C@@H](C(C)C)[C@H](C)OC(=O)[C@H](C)NC(=O)c1nccc(OC)c1O

>  <pest or weed control at 100 ppm>
< 0%

$$$$
>  <molecule>
COc1ccnc(C(=O)N[C@@H](C)C(=O)O[C@@H](C)[C@@H](c2ccc(Cl)cc2Cl)C(C)C)c1O

>  <pest or weed control at 100 ppm>
< 80%

$$$$
>  <molecule>
COc1ccnc(C(=O)N[C@@H](C)C(=O)O[C@H](C)[C@H](c2ccc(F)cc2C)C2CCCCC2)c1O

>  <pest or weed control at 100 ppm>
> 80%

$$$$
>  <molecule>
COc1ccnc(C(=O)N[C@@H](C)C(=O)O[C@@H](C)[C@H](c2cccc(C)c2C)C(C)C)c1O

>  <pest or weed control at 100 ppm>
< 80%

$$$$
>  <molecule>
COc1ccnc(C(=O)N[C@@H](C)C(=O)O[C@@H](C)[C@H](c2cc(C)ccc2C)C(C)C)c1O

>  <pest or weed control at 100 ppm>
< 80%

$$$$

Source listed as patent US20180186742A1.
